Recorded values, source PubChem BioAssay (NCATS).

Assay: Cell Viability - LYMP2-010 (AID 981);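 also: cells exposed to compound for 24 hours at 37 °C; nearly all actives have a fitted effect of over 55% in size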
Details: LYMP2-010 lymphoblastoid cell viability, qHTS; series mostly up to 92.2 µM
Inconclusive results are not listed. Activity calls are given as the source filed them. Calls follow the shape of the dose curve; as a rule, active = well fitted cell-killing curve with a large enough effect; inconclusive = small, poorly fitted or top-dose-only effect; inactive = flat fitted curve, though single readings scatter.
Choose the fitting class; nothing outside 1 = active, -1 = inactive is accepted.

Identify the outcome logged in this assay for the compound shown: Cc1ccccc1C=O
-1

Same thing, different compound: O=[N+]([O-])c1c(Cl)cc(Cl)cc1Cl
-1

Same thing, different compound: C=C(C)C(=O)OCC(C)O (configuration not stated)
-1

Same thing, different compound: C=C(C)OC(C)=O
-1

Same thing, different compound: CC(=O)c1ccc([N+](=O)[O-])cc1
-1

Same thing, different compound: CCC(=O)/C=C/C1C(C)=CCCC1(C)C (configuration not stated)
1

Same thing, different compound: CC/C=C/C#N
-1

Same thing, different compound: CC(C)c1ccccc1
-1

Same thing, different compound: O=Cc1ccc(C(=O)O)cc1
-1

Same thing, different compound: Cc1ccc2ncccc2c1
-1

Same thing, different compound: CC(C)(O)CCC(C)(C)O
-1

Same thing, different compound: Cc1cc(C(=O)O)ccc1[N+](=O)[O-]
-1

Same thing, different compound: O=C(O)c1ccc(C(=O)O)cc1
-1

Same thing, different compound: O=Cc1cccc(Br)c1
-1

Same thing, different compound: Cc1ccc(C#N)cc1
-1

Same thing, different compound: CCCCC(=O)N(C)C
-1

Same thing, different compound: CCCC=O
-1

----------
Target: Cytochrome P450 3A4 (Homo sapiens)
Assay: qHTS Assay for Inhibitors and Substrates of Cytochrome P450 3A4 (AID 884); also: nearly all actives have a fitted effect of over 50% in size
Settings: recombinant CYP3A4, Luciferin-PPXE luminescence; series mostly up to 57.1 µM
Results filed as inconclusive are left out. The source made the active and inactive calls. The call rests on the fitted dose curve; in most records, active means well fitted inhibition curve with a large enough effect; inconclusive means small, poorly fitted or top-dose-only effect; inactive means no such curve, though single readings can be large or run the other way.
Choose the fitting class; nothing outside TRUE (active), FALSE (inactive) is accepted.

Identify the outcome logged in this assay for the molecule shown: CC(C)=CCl
FALSE

Same thing, different molecule: CCCCC=O
FALSE

Same thing, different molecule: Cc1ccccc1C(N)=O
FALSE

Same thing, different molecule: CCCCC(CC)CO (configuration not stated)
FALSE

Same thing, different molecule: O=Nc1ccc(NO)cc1
FALSE

Same thing, different molecule: O=C(O)CNC(=O)c1ccc([N+](=O)[O-])cc1
FALSE

Same thing, different molecule: CSCCC=O
FALSE

Same thing, different molecule: CN(C)CCCNCCCN
FALSE

Same thing, different molecule: CC#N
FALSE

Same thing, different molecule: O=C(O)c1ccc(CO)o1
FALSE

Same thing, different molecule: CCCCC/C=C/C=C/C=O
FALSE

Same thing, different molecule: O=C(O)CNC(=O)c1ccc(CO)o1
FALSE

Same thing, different molecule: CCCCN(CCO)CCCC
FALSE

Same thing, different molecule: O=C(O)c1ccc(Cl)cc1Cl
FALSE

Same thing, different molecule: CCOC(=O)OCC
FALSE

Same thing, different molecule: c1ccc2c(c1)Oc1ccccc1S2
FALSE

Same thing, different molecule: N#CCc1ccccc1[N+](=O)[O-]
FALSE

Same thing, different molecule: C=C(C)C(=O)OC
FALSE

Same thing, different molecule: CCC1CO1 (configuration not stated)
FALSE

Same thing, different molecule: CC1(N)CCC(C(C)(C)N)CC1 (configuration not stated)
FALSE

Same thing, different molecule: CCN(C(=O)N(CC)c1ccccc1)c1ccccc1
FALSE

Same thing, different molecule: C=Cc1ccccn1
FALSE

Same thing, different molecule: CCC(C)=O
FALSE

Same thing, different molecule: C=C(C)C(N)=O
FALSE

Same thing, different molecule: C=CCCC
FALSE

Same thing, different molecule: CC=C(Cl)Cl
FALSE

Same thing, different molecule: Cc1cc(C)cc([N+](=O)[O-])c1
FALSE

Same thing, different molecule: CCCC(Cl)CCCC(Cl)CCC(Cl)CCC(Cl)CCC(Cl)CCCC(Cl)CCC (configuration not stated)
FALSE

Same thing, different molecule: CC(C)CCOC(=O)/C=C/c1ccccc1
FALSE

Same thing, different molecule: NC=O
FALSE

Same thing, different molecule: Nc1nc2ccccc2[nH]1
FALSE

Same thing, different molecule: COC(=O)CC#N
FALSE

Same thing, different molecule: O=[N+]([O-])c1ccc(Cl)cc1Cl
FALSE

Same thing, different molecule: ICCc1ccccc1
FALSE

Same thing, different molecule: NC(=O)c1ccccc1[N+](=O)[O-]
FALSE

Same thing, different molecule: O=[N+]([O-])c1ccc(CCO)cc1
FALSE

Same thing, different molecule: CCNS(=O)(=O)c1ccc(C)cc1
FALSE

Same thing, different molecule: CC(C)(C)OC=O
FALSE

Same thing, different molecule: CNC(=O)N(c1ccccc1)c1ccccc1
FALSE

Same thing, different molecule: Cc1ccc(C)c(O)c1
FALSE

Same thing, different molecule: CC(=O)Nc1ccc(C)cc1
FALSE

Same thing, different molecule: O=C(O)c1c(Cl)cccc1Cl
FALSE

Same thing, different molecule: CNc1ccccc1
FALSE

Same thing, different molecule: Cc1ccccc1C#N
FALSE

Same thing, different molecule: BrC/C=C/CBr
FALSE

Same thing, different molecule: Nc1cccc(O)c1
FALSE

Same thing, different molecule: Oc1c(Cl)ccc(Cl)c1Cl
FALSE

Same thing, different molecule: CC/C=C/C#N
FALSE

Same thing, different molecule: CC(C=O)Cc1ccc(C(C)(C)C)cc1 (configuration not stated)
FALSE

Same thing, different molecule: C=CCOC(=O)COCCC(C)C
FALSE

Same thing, different molecule: Nc1cc(S(=O)(=O)O)ccc1O
FALSE

Same thing, different molecule: Cc1cccc2ccccc12
FALSE

Same thing, different molecule: COc1ccc(OC)cc1
FALSE

Same thing, different molecule: CC(CCl)OC(C)CCl (configuration not stated)
FALSE

Same thing, different molecule: C=Cc1ccccc1C=C
FALSE

Same thing, different molecule: c1ccc(Oc2ccccc2)cc1
FALSE

Same thing, different molecule: C/C(C=O)=C/c1ccccc1
FALSE

Same thing, different molecule: Nc1nc(CC(=O)O)cs1
FALSE

Same thing, different molecule: O=C1OC(=O)c2c(Br)c(Br)c(Br)c(Br)c21
FALSE

Same thing, different molecule: CC(=O)c1cccc([N+](=O)[O-])c1
FALSE

Same thing, different molecule: CCOc1ccccc1N
FALSE

Same thing, different molecule: CCOc1cccc(N)c1
TRUE

Same thing, different molecule: CCCCC(C=O)CC (configuration not stated)
FALSE

Same thing, different molecule: CC(=O)Nc1ccccc1C
FALSE

Same thing, different molecule: Cc1cccc2sc(N)nc12
FALSE

Same thing, different molecule: CC(=O)OC(C)C
FALSE

Same thing, different molecule: Nc1c(Cl)cc(Cl)cc1Cl
FALSE

Same thing, different molecule: O=Cc1ccccc1Cl
FALSE

Same thing, different molecule: CNC(=O)c1ccccc1
FALSE

Same thing, different molecule: ON=C1CCCCC1
FALSE

Same thing, different molecule: Nc1nc(-c2ccccc2)cs1
TRUE

Same thing, different molecule: C=C(C)C(=O)OCC(C)C
FALSE

----------
Target: Thyroid hormone receptor beta (Homo sapiens) (UniProt P10828)
Sequence (P10828 whole entry, looked up): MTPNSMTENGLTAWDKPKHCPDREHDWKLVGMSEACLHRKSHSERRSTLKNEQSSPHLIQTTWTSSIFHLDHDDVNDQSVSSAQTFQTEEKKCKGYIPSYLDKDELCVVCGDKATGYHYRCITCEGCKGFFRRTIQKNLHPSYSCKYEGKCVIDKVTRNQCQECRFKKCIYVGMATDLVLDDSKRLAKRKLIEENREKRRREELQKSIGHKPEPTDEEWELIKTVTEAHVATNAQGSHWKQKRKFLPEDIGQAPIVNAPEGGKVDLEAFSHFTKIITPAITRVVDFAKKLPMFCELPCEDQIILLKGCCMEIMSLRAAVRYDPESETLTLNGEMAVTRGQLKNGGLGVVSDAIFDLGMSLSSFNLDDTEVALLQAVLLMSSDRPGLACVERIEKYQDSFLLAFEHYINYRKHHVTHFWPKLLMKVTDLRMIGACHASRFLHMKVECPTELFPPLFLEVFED
Test: qHTS assay for small molecule antagonists of thyroid hormone receptor beta signaling (AID 588547);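 also: cells stimulated with 0.4 nM T3 agonist during compound exposure; % is scaled to controls: 0 for no effect and ±100 for the full control effect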
Conditions: TR-UAS-bla HEK293, beta-lactamase ratio, antagonist mode, 18 h
Inconclusive results are not listed.
readout: activity change % (negative = inhibition) (%)
Lab book: enter the figure in %, no units written.

Field request: activity change % (negative = inhibition) | item: CCN(CC)c1cccc(O)c1
4.53

Same thing, different compound: OC/C(Br)=C(\Br)CO
-11.8

Same thing, different compound: Cc1ccccc1C(N)=O
-3.78

Same thing, different compound: C=Cc1ccc(C=C)cc1
-18.2

Same thing, different compound: c1ccc2n[nH]nc2c1
-7.43

Same thing, different compound: Cc1ccc(S(=O)(=O)NC2CCCCC2)cc1
-0.348

Same thing, different compound: CCC(C)(C)C
-4.13

Same thing, different compound: C1CCC2OC2C1 (stereo unspecified)
14.7

Same thing, different compound: CC(C)CO
-17.4

Same thing, different compound: CC(=O)c1ccccn1
-7.89

Same thing, different compound: Nc1cc(Cl)c([N+](=O)[O-])cc1O
14.2

Same thing, different compound: CC(C)CCOC(=O)/C=C/c1ccccc1
-18.5

Same thing, different compound: CC(=O)c1nccs1
1.64

Same thing, different compound: O=C1CCC(=O)O1
-21.6

Same thing, different compound: CC(C)C=O
-10

Same thing, different compound: CCCCC(CC)CNCC(CC)CCCC (stereo unspecified)
4.7

Same thing, different compound: Cc1cccc(C(=O)O)c1
2.36

Same thing, different compound: CCCCC(=O)N(C)C
6.71

Same thing, different compound: COc1ccc(N)c(OC)c1
-1.14

Same thing, different compound: C(=C/c1ccccc1)/c1ccccc1
-6.07

Same thing, different compound: O=Cc1ccc(C(=O)O)cc1
7.45

Same thing, different compound: Cc1ccc2ccccc2c1[N+](=O)[O-]
-6.91

Same thing, different compound: Cc1ccc(C(=O)O)cc1
18.4

Same thing, different compound: CC(=C/C=C/C(C)=C/C=C/C=C(C)/C=C/C=C(C)/C=C/C(=O)O)/C=C/C(=O)O
-8.7

Same thing, different compound: NC(=O)c1ccccc1[N+](=O)[O-]
5.01

Same thing, different compound: CCCCCCCCN
5.95

Same thing, different compound: C1COC1
14.8

Same thing, different compound: Fc1ccccc1
-5.64

Same thing, different compound: Cc1cc(C)cc(O)c1
2.53

Same thing, different compound: CCC(C)=O
-18.3

Same thing, different compound: CCC(C)(C)OC
-6.68

Same thing, different compound: CNc1ccccc1
-1.47

Same thing, different compound: O=C(O)c1ccc(Cl)c(Cl)c1
2.03

Same thing, different compound: C/C(C=O)=C/c1ccccc1
-5.38

Same thing, different compound: O=Cc1ccc(CO)o1
7.62

Same thing, different compound: ClCCl
0.0464
